# METHOD SUMMARY: AUC (infinity) in Sprague-Dawley rat at 2 mg/kg, po
# Assay type: ADME, organism-based
# Parameters: dose 2 mg/kg, route oral, time infinity
# TEST SETTINGS: plasma
READOUT: AUC(0-inf) (µM·h)
The figure you give is taken to be in µM·h; do not add the unit.

Bench note: what AUC(0-inf) did Nc1cncc(Nc2ccc(Oc3ccc(OC(F)(F)F)cc3)cc2)n1 show?
0.76

====

Quick list: solubility per entry.
# METHOD SUMMARY: Solubility of the compound in phosphate buffered saline at pH 7.4
# Format: physicochemical
The figure you give is taken to be in µg/mL; do not add the unit.

INSERT INTO assay_data (smiles_record, readout, number) VALUES
  ('Nc1cncc(Nc2ccc(Oc3ccc(OC(F)(F)F)cc3)cc2)n1', 'solubility', 1);

Bench note: what solubility did Nc1ncnc(Nc2ccc(Oc3ccc(Cl)cc3)cc2)n1 show?
1

====

# METHOD SUMMARY: Volume of distribution at steady state in Sprague-Dawley rat at 0.5 mg/kg, iv
# Format: ADME, organism-based
# Parameters: dose 0.5 mg/kg, route intravenous
# TEST SETTINGS: in vivo, read-out: Vdss
READOUT: Vd (L/kg)
The figure you give is taken to be in L/kg; do not add the unit.

Bench note: what Vd did Nc1cncc(Nc2ccc(Oc3ccc(OC(F)(F)F)cc3)cc2)n1 show?
2.1

====

# METHOD SUMMARY: Solubility of the compound in simulated intestinal fluid
# Assay type: physicochemical
Quick list: solubility per entry.

INSERT INTO results (smiles_record, readout, result) VALUES
  ('Nc1ncnc(Nc2ccc(Oc3ccc(Cl)cc3)cc2)n1', 'solubility', '7 µg/mL');

Bench note: what solubility did Nc1cncc(Nc2ccc(Oc3ccc(OC(F)(F)F)cc3)cc2)n1 show?
109 µg/mL

====

# METHOD SUMMARY: Cmax in Sprague-Dawley rat at 2 mg/kg, po
# Type: ADME, organism-based
# Parameters: dose 2 mg/kg, route oral
# TEST SETTINGS: in vivo
READOUT: Cmax (nM)
The figure you give is taken to be in nM; do not add the unit.

Bench note: what Cmax did Nc1cncc(Nc2ccc(Oc3ccc(OC(F)(F)F)cc3)cc2)n1 show?
220
